# Tested on: Escherichia coli
# Assay Summary: minimum inhibitory concentration (MIC)
# Experimental Context: isolate (source animal id): 169
Recorded Metric: minimum inhibitory concentration

The following compounds have reported results that may help.
# Smiles Record, minimum inhibitory concentration
rows = [
    ("CC1(C)S[C@@H]2[C@H](NC(=O)Cc3ccccc3)C(=O)N2[C@H]1C(=O)O", "> 8 µg/mL"),
    ("CCCNC[C@]1(O)[C@H](C)O[C@@H](O[C@H]2[C@H](C)[C@@H](O[C@@H]3O[C@H](C)C[C@H](N(C)C)[C@H]3O)[C@](C)(O)C[C@@H](C)CN[C@H](C)[C@@H](O)[C@](C)(O)[C@@H](CC)OC(=O)[C@@H]2C)C[C@@]1(C)OC", "≤ 8 µg/mL"),
    ("CCCN1C[C@H](C)[C@@H](O)[C@](C)(O)[C@@H](CC)OC(=O)[C@H](C)[C@@H](O[C@H]2C[C@@](C)(OC)[C@@H](O)[C@H](C)O2)[C@H](C)[C@@H](O[C@@H]2O[C@H](C)C[C@H](N(C)C)[C@H]2O)[C@](C)(O)C[C@H]1C", "8 µg/mL"),
    ("CC[C@H]1OC(=O)C[C@@H](O)[C@H](C)[C@@H](O[C@@H]2O[C@H](C)[C@@H](O)[C@H](N(C)C)[C@H]2O)[C@@H](CCN2C[C@H](C)C[C@H](C)C2)C[C@@H](C)C(=O)/C=C/C(C)=C/[C@@H]1CO[C@@H]1O[C@H](C)[C@@H](O)[C@@H](OC)[C@H]1OC", "> 16 µg/mL"),
]

// switching to the query compound
Task item: // query minimum inhibitory concentration value for entry COc1cc(Cc2cnc(N)nc2N)cc(OC)c1OC.Cc1cc(NS(=O)(=O)c2ccc(N)cc2)no1
Reply: ≤ 2 µg/mL

====

Here, each record is paired with measured minimum inhibitory concentration data.
# Test system: Enterococcus spp.
# Assay Summary: minimum inhibitory concentration (MIC)
# Experimental Context: isolate (source animal id): 290
Express the result in µg/mL but write the number alone.

# Compound, Target Of Assay, Measurement Units, minimum inhibitory concentration
records = [
    ("CO/N=C(\\C(=O)N[C@@H]1C(=O)N2C(C(=O)O)=C(CSC(=O)c3ccco3)CS[C@H]12)c1csc(N)n1 [Ceftiofur]", "Enterococcus spp.", "µg/mL", 8),
    ("NC[C@@H]1O[C@H](O[C@H]2[C@@H](O)[C@H](O[C@@H]3[C@@H](O)[C@H](N)C[C@H](N)[C@H]3O[C@H]3O[C@H](CN)[C@@H](O)[C@H](O)[C@H]3N)O[C@@H]2CO)[C@H](N)[C@@H](O)[C@@H]1O [Neomycin]", "Enterococcus spp.", "µg/mL", 16),
]

// moving on: another record for minimum inhibitory concentration
Task item: Reported minimum inhibitory concentration for Enterococcus spp., given CNC(C)C1CCC(N)C(OC2C(N)CC(N)C(OC3OCC(C)(O)C(NC)C3O)C2O)O1 (stereo unspecified) [Gentamicin] ?
Reply: 4

====

# System: Histophilus somni
# Assay Summary: minimum inhibitory concentration (MIC)
# Experimental Context: isolate (source animal id): 210
Recorded Metric: minimum inhibitory concentration (µg/mL)
Respond numerically; units are µg/mL and should not be typed.

Worked cases, answers included:
# Compound, Experimental Value
measured = [
    ("CC[C@H]1OC(=O)C[C@@H](O)[C@H](C)[C@@H](O[C@@H]2O[C@H](C)[C@@H](O[C@H]3C[C@@](C)(O)[C@@H](O)[C@H](C)O3)[C@H](N(C)C)[C@H]2O)[C@@H](CC=O)C[C@@H](C)C(=O)/C=C/C(C)=C/[C@@H]1CO[C@@H]1O[C@H](C)[C@@H](O)[C@@H](OC)[C@H]1OC", 8),
    ("CNC(C)C1CCC(N)C(OC2C(N)CC(N)C(OC3OCC(C)(O)C(NC)C3O)C2O)O1 (stereo not given)", 8),
]

Pending compound:
Task item: Which minimum inhibitory concentration is listed for CC[C@H]1OC(=O)C[C@@H](O)[C@H](C)[C@@H](O[C@@H]2O[C@H](C)[C@@H](O)[C@H](N(C)C)[C@H]2O)[C@@H](CCN2C[C@H](C)C[C@H](C)C2)C[C@@H](C)C(=O)/C=C/C(C)=C/[C@@H]1CO[C@@H]1O[C@H](C)[C@@H](O)[C@@H](OC)[C@H]1OC ?
Reply: 4

Origin of values: the supplement of paper PMC8612539
